Reference source: the Human Domainome abundance scans (Beltran et al. 2025)

B1: Lysine-specific demethylase 2B, residues 656 to 722; numbered along this chain, Q8NHM5 (parent)
chain: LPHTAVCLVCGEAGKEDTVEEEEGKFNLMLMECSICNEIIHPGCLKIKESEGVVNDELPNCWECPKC

# Variants of: B1
# EXPERIMENTAL DETAILS: abundance fitness (aPCA) (normalised: wild type 0, dead -1); higher = more abundant; growth selection in yeast, the domain comes from the species named
# MEASUREMENT CONTEXT: Homo sapiens
Would you kindly list abundance fitness for each of these variants?
Number only, please.

abundance fitness measured on E38N = -0.402

abundance fitness measured on C44S = -0.843

abundance fitness measured on P2F = 0.359

abundance fitness measured on K15L = -0.154

abundance fitness measured on A5T = 0.138

abundance fitness measured on V53I = -0.07

abundance fitness measured on V53K = -0.167

abundance fitness measured on M31H = -0.25

abundance fitness measured on N37F = -0.233

abundance fitness measured on E32M = 0.142

abundance fitness measured on E51A = -0.044

abundance fitness measured on W62V = -0.465

abundance fitness measured on H41E = -0.997

abundance fitness measured on L58T = 0.206

abundance fitness measured on N55T = -0.101

abundance fitness measured on T4K = -0.964

abundance fitness measured on D56P = 0.099

abundance fitness measured on A13E = 0.214

abundance fitness measured on V53F = -0.343

abundance fitness measured on I39T = -0.053

abundance fitness measured on L30C = -0.232

abundance fitness measured on D17R = -0.066

abundance fitness measured on F26I = 0.028

abundance fitness measured on I47V = 0.006

abundance fitness measured on D17M = 0.392

abundance fitness measured on H3V = 0.234

abundance fitness measured on L30S = -0.452

abundance fitness measured on E63Y = -0.263

abundance fitness measured on K48G = -0.056

abundance fitness measured on M29V = -0.318

abundance fitness measured on M29H = -0.31

abundance fitness measured on K66Q = -0.551

abundance fitness measured on P2I = 0.783

abundance fitness measured on L45F = -0.286

abundance fitness measured on E20D = -0.276
